Biological target: Sigma σ1 (Homo sapiens)
Construct: Sigma σ1; Source: Human Jurkat cells; host or cells: Jurkat
Sequence (Q99720 whole entry): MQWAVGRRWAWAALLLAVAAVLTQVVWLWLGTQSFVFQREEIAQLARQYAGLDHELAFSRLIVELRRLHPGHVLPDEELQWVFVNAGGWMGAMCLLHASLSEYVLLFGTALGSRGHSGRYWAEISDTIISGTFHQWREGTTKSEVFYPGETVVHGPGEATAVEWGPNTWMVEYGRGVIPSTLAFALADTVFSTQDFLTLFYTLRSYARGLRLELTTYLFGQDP
Test: Radioligand displacement binding assay, [3H]pentazocine, sigma σ1
Conditions: 0.3 μM
Can you tell me inhibition at 0.3 µM for the items I'm about to list?

Lab note: need inhibition at 0.3 µM with Sigma σ1 (Homo sapiens) for entry CC[C@@H](O)C(C[C@H](C)N)(c1ccccc1)c1ccccc1 , please look it up.
17%

Lab note: need inhibition at 0.3 µM with Sigma σ1 (Homo sapiens) for entry CC[C@H](O)C(C[C@@H](C)NC)(c1ccccc1)c1ccccc1 , please look it up.
-1%

Lab note: need inhibition at 0.3 µM with Sigma σ1 (Homo sapiens) for entry CC[C@@H](O)C(C[C@@H](C)N)(c1ccccc1)c1ccccc1 , please look it up.
14%

Lab note: need inhibition at 0.3 µM with Sigma σ1 (Homo sapiens) for entry CC[C@H](O)C(C[C@@H](C)N)(c1ccccc1)c1ccccc1 , please look it up.
-4%

Lab note: need inhibition at 0.3 µM with Sigma σ1 (Homo sapiens) for entry CC[C@@H](O)C(C[C@H](C)NC)(c1ccccc1)c1ccccc1 , please look it up.
47%

Lab note: need inhibition at 0.3 µM with Sigma σ1 (Homo sapiens) for entry CC[C@H](O)C(C[C@H](C)N)(c1ccccc1)c1ccccc1 , please look it up.
46%

Lab note: need inhibition at 0.3 µM with Sigma σ1 (Homo sapiens) for entry CCC(=O)C(C[C@H](C)N(C)C)(c1ccccc1)c1ccccc1 [(S)-methadone, reference compound] , please look it up.
23%

Lab note: need inhibition at 0.3 µM with Sigma σ1 (Homo sapiens) for entry CC[C@H](O)C(C[C@H](C)NC)(c1ccccc1)c1ccccc1 , please look it up.
46%

Lab note: need inhibition at 0.3 µM with Sigma σ1 (Homo sapiens) for entry CCC1=N[C@H](C)CC1(c1ccccc1)c1ccccc1 [(R)-EMDP] , please look it up.
11%

Lab note: need inhibition at 0.3 µM with Sigma σ1 (Homo sapiens) for entry CC[C@@H](O)C(C[C@@H](C)NC)(c1ccccc1)c1ccccc1 , please look it up.
4%
